Hey, just so you know, these numbers are from ChEMBL document CHEMBL3785067.

- system tested: Amine oxidase [flavin-containing] B (Homo sapiens, UniProt P27338)
- Sequence (P27338 whole entry): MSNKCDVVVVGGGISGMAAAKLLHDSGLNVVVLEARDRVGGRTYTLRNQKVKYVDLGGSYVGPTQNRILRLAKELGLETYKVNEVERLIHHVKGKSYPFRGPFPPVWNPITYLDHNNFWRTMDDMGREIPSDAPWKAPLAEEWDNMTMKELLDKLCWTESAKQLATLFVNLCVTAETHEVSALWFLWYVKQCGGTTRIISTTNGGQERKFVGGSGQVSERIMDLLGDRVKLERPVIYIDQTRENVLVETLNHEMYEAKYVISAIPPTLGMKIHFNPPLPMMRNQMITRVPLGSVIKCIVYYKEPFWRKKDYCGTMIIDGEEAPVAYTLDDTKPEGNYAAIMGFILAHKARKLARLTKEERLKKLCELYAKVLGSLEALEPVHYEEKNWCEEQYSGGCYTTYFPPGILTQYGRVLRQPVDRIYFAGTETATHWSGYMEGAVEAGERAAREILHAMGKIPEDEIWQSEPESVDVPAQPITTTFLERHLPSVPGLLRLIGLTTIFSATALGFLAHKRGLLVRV
- assay comment: Inhibition of human recombinant MAO-B using kynuramine as substrate after 30 mins by fluorescence spectrophotometry
observed property: pIC50
Note on units: pIC50 is unitless, being -log10 of a concentration expressed in mol/L.

Completed entries (count: 5):
O=C1/C(=C/c2ccc(N3CCCCC3)cc2)Oc2cc(O)cc(O)c21	6.41
O=C1/C(=C/c2ccc(N3CCOCC3)cc2)Oc2cc(O)cc(O)c21	6.47
CCN(CC)c1ccc(/C=C2\Oc3cc(O)cc(O)c3C2=O)cc1	6.48
CCN(C)c1ccc(/C=C2\Oc3cc(O)cc(O)c3C2=O)cc1	6.09
CN1CCN(c2ccc(/C=C3\Oc4cc(O)cc(O)c4C3=O)cc2)CC1	4.97

Exercise: Need pIC50, item CN(C)c1ccc(/C=C2\Oc3cc(O)cc(O)c3C2=O)cc1
Solution: 5.23

Exercise: Need pIC50, item O=C1/C(=C/c2ccc(N3CCCC3)cc2)Oc2cc(O)cc(O)c21
Solution: 6.41

Exercise: Need pIC50, item COc1cc(O)c2c(c1)O/C(=C\c1ccc(N3CCOCC3)cc1)C2=O
Solution: 5.82

Exercise: Need pIC50, item COc1cc(O)c2c(c1)O/C(=C\c1ccc(N3CCCCC3)cc1)C2=O
Solution: 6.65

Exercise: Need pIC50, item COc1cc(O)c2c(c1)O/C(=C\c1ccc(N(C)C)cc1)C2=O
Solution: 6.15
